Protocol description: Awakening time and estimated midazolam concentration at awakening (simple linear regression)
Assay type: in vivo, human
Cond: human, plasma, intravenous, 0.15 mg/kg/h; from regression equation Y = − 4.506 × X + 105.5 at 16.6 h, awakened patients n = 7; read-out: Estimated concentration of midazolam at the subgroup awakening time

Molecule | concentration at 16.6 h, ng/mL
Cc1ncc2n1-c1ccc(Cl)cc1C(c1ccccc1F)=NC2 [MDZ, midazolam] | 30.7

----------
Protocol description: Non-compartmental pharmacokinetics of midazolam and metabolites in plasma after discontinuation of MDZ infusion (LC-MS/MS)
Assay type: in vivo, human
Cond: human, plasma, intravenous; after discontinuation of MDZ infusion; mean ± SD; read-out: t1/2 (elimination half-life) (converted)
Description: The PK parameters were obtained using a non-compartmental method with Phoenix WinNonlin (version 8.3.5; Certara, USA). […] The AUC from time 0 to infinity (AUCinf) was calculated as AUClast + Clast/λz, where Clast is the last measurable concentration and λz is the elimination rate constant. The mean residence time was calculated as […]. The estimated t1/2 was calculated from λz based on a previously reported equation[12]. […]

Compound | half-life
Cc1ncc2n1-c1ccc(Cl)cc1C(c1ccccc1F)=NC2O (stereo not shown) [4-OH-MDZ, 4-hydroxymidazolam] | 7.3 h

----------
Documented t1/2 (elimination half-life) across a set of compounds
Protocol description: Non-compartmental pharmacokinetics of midazolam and metabolites in plasma after discontinuation of MDZ infusion (LC-MS/MS)
Format: in vivo, human
Cond: after discontinuation of MDZ infusion; mean ± SD

Compound | t1/2 (elimination half-life)
OCc1ncc2n1-c1ccc(Cl)cc1C(c1ccccc1F)=NC2 [1-OH-MDZ, 1-hydroxymidazolam] | 8.1 ± 4.9 h
O=C(O)[C@H]1O[C@@H](OCc2ncc3n2-c2ccc(Cl)cc2C(c2ccccc2F)=NC3)[C@H](O)[C@@H](O)[C@@H]1O [1-OH-MDZ-Glu, 1-hydroxymidazolam glucuronide] | 15.4 ± 19.9 h
Cc1ncc2n1-c1ccc(Cl)cc1C(c1ccccc1F)=NC2O[C@@H]1O[C@H](C(=O)O)[C@@H](O)[C@H](O)[C@H]1O (stereo partly shown) [4-OH-MDZ-Glu, 4-hydroxymidazolam glucuronide] | 5.4 ± 0.7 h
Cc1ncc2n1-c1ccc(Cl)cc1C(c1ccccc1F)=NC2 [MDZ, midazolam] | 6.2 ± 3.9 h

----------
Protocol description: Non-compartmental pharmacokinetics of midazolam and metabolites in plasma after discontinuation of MDZ infusion (LC-MS/MS)
Format: in vivo, human
Cond: plasma, time 0 to infinity after discontinuation of MDZ infusion; relative concentration; mean ± SD
Documented AUCinf across a set of molecules
Reported endpoint: AUCinf (h*ppm)

Molecule | Reported endpoint | Result units | Endpoint value
Cc1ncc2n1-c1ccc(Cl)cc1C(c1ccccc1F)=NC2O (stereo not shown) [4-OH-MDZ, 4-hydroxymidazolam] | AUCinf | h*ppm | 204.7
Cc1ncc2n1-c1ccc(Cl)cc1C(c1ccccc1F)=NC2O[C@@H]1O[C@H](C(=O)O)[C@@H](O)[C@H](O)[C@H]1O (stereo partly shown) [4-OH-MDZ-Glu, 4-hydroxymidazolam glucuronide] | AUCinf | h*ppm | 33.3
OCc1ncc2n1-c1ccc(Cl)cc1C(c1ccccc1F)=NC2 [1-OH-MDZ, 1-hydroxymidazolam] | AUCinf | h*ppm | 1419.1

----------
Protocol description: Non-compartmental pharmacokinetics of midazolam and metabolites in plasma after discontinuation of MDZ infusion (LC-MS/MS)
Format: in vivo, human
Cond: human, plasma, intravenous; after discontinuation of MDZ infusion; mean ± SD; read-out: MRTinf (mean residence time)
Method: The PK parameters were obtained using a non-compartmental method with Phoenix WinNonlin (version 8.3.5; Certara, USA). […] The AUC from time 0 to infinity (AUCinf) was calculated as AUClast + Clast/λz, where Clast is the last measurable concentration and λz is the elimination rate constant. The mean residence time was calculated as […]. The estimated t1/2 was calculated from λz based on a previously reported equation[12]. […]

Compound | MRT inf (h)
Cc1ncc2n1-c1ccc(Cl)cc1C(c1ccccc1F)=NC2O (centres unmarked) [4-OH-MDZ, 4-hydroxymidazolam] | 10
Cc1ncc2n1-c1ccc(Cl)cc1C(c1ccccc1F)=NC2 [MDZ, midazolam] | 8.2
